# target_desc: SARS-CoV-2 PL^pro (Severe acute respiratory syndrome coronavirus 2, UniProt P0DTD1)
# method_notes: biochemical
# conditions_used: 0.5 h, read-out: inhibition [%] SARS-CoV-2 PLpro
value_type: inhibition at 1 µM (%)

1. O=c1c2ccccc2[se]n1-c1ccccc1Cl [Compound 2]
56.7
2. O=c1c2ccccc2[se]n1-c1ccccc1F [Compound 1]
54.6
3. Cc1c(Cl)cccc1-n1[se]c2ccccc2c1=O [Compound 21]
58.3
4. CC(=O)Nc1ccc(-n2[se]c3ccccc3c2=O)cc1 [Compound 13]
57.3
5. O=c1c2ccccc2[se]n1-c1cc(Cl)ccc1F [Compound 17]
47.2
6. Cc1cc(-n2[se]c3ccccc3c2=O)ccc1Cl [Compound 22]
43.1
7. COc1ccc(-n2[se]c3ccccc3c2=O)cc1OC [Compound 23]
58
8. O=c1c2ccccc2[se]n1-c1ccc(I)cc1 [Compound 11]
48
9. O=c1c2ccccc2[se]n1-c1ncccc1O [Compound 7]
84.4
10. O=c1c2ccccc2[se]n1-c1ccc(C(F)(F)F)cc1 [Compound 9]
48
